Value source: patent US20210024625A1

# target.of.assay: PfRH5 from Plasmodium falciparum strain FCR-1/FVO (Plasmodium falciparum)
# protocol.details: cell-based or functional assay
Assign Max growth inhibition (%) to each entry below.
Give bare numbers, in %.

{"columns": ["binder", "reported.result"],
 "data": [
  ["H1H29104P (antibody, V domains shown) VH: EVQLVESGGGLVQPGRSLRLSCAASGFRFDDYAMHWVRQAPGKGLEWVSGINWNSGGKGYADSVQGRFTISRDNAKNSLYLQMNSLRTEDTALYYCAKDRGIAARLLSRDAFDMWGQGTMVTVSS VL: DIQLTQSPSFLSASVGDRVTITCWASQDVSSYLAWYQQKPGKSPKLLIFAASTLQGGIPSRFSGSGSGTEFTLTISSLRPEDFATYYCQHLNTYPYTFGQGTKLEIKR", 67.4],
  ["H1H29100P (antibody, V domains shown) VH: QLQLQESGPGLVKPSETLSLTCTVSGGSISSSSYYWGWIRQPPGKGLEWIGIIYYSGSTYYNPSLKSRVTISVDTSKNQFSLKLSSVTAADTAVYYCARQDREALFDYWGQGTLVTVSS VL: EIVLTQSPDFQSVTPKEKVTITCRASQRIGSSLHWYQQKPDQSPKLLIKYASQSFSGVPSRFSGSGSGTDFTLTINSLEAEDAATYYCHQSSTLPTFGQGTRLEIKR", 66.9],
  ["H1H29127P (antibody, V domains shown) VH: QVQLVESGGGVVQPGRSLRLSCAASGFTFSSYGMHWVRQAPGKGLEWVAAIWYDGSNKYYADSVKGRFTISRDNSKNTLYLQMNSLRAEDTAVYFCARGEHYYGSGPFDPWGQGTLVTVSS VL: DIQMTQSPSSLSASVGDRVTITCRASQSISNYLNWYQQKPGKAPKLLIFAASSLQSGVPSRFSGSGSGTDFTLTISSLQPEDFATYYCQQSYSSPLTFGGGTKVEIKR", 61.1],
  ["H1H29125P (antibody, V domains shown) VH: QVQLVESGGGVVQPGRSLRLSCAASGFTFSSYGMHWVRQAPGKGLEWMAVISYDGSNKYYADSVKGRFTISRDNSKNTLFLQMNSLRPEDTAVYYCAQDGSSAIYYFYGMDVWGQGTTVTVSS VL: DIQMTQSPSSLSASIGDRVTITCRASQDINNYLAWFQQKPGKAPKSLIYAASSLQSGVPSKFSGSGSGTDFTLTISSLQPEDFATYYCLQYNSYHPTFGQGTKLEIKR", 67.6]
]}

Give Max growth inhibition (%) for each listed item.
1. H1H29138P (antibody, V domains shown) VH: QVQLVESGGGVVQPGRSLRLSCAASGFTFSTYGMHWVRQAPGKGLEWVAVIWYDGTNKYYADSVKGRFTISRDNSKNTLYLQMISLRAEDTAVYYCARDPSGGDHYYYYGMDVWGQGTTVTVSS VL: DIQMTQSPSSLSASVGDRITITCQASQDISNYLNWYQQKPGKAPNLLISDASDLETGVPSRFSGSGSGTDFTFTISSLQPEDFATYYCQQYDNIPITFGQGTRLEIKR
2. H1H29109P (antibody, V domains shown) VH: EVQLVESGGGLVQPGRSLRLSCAVSGFTFDDYAMHWVRQAPGKGLEWVSGISWNSGDIDYADSVKGRFTISRDNAKNSLYLQMNSLRAEDTALYYCAKDTLSGTGTTWYYFDYWGQGTLVTVSS VL: DIQLTQSPSFLSASVGDRVTITCWASQGISSYLIWYQQKPGKAPKLLIYAASTLQSGVPSRFSGSGSGTEFTLTISSLQPEDFATYYCQQVNSYPLTFGGGTKVEIKR
3. H1H29089P (antibody, V domains shown) VH: EVQLVQSGAEVKKPGESLKISCKGSGYSFTSYWIVWVRQMPGKGLEWMGIIYPGDSDTRYSPSFQGQVTISADKSISTAYLQWSSLKASDTAMYYCARQDITGTTGFDYWGQGTLVTVSS VL: DIQMTQSPSSLSASVGDRVTITCRASQSIRNYLNWYQQKPGKAPKLLIYAASSLQSGVPSRFSGSGSGTDFTLTISSLQPEDFATYFCQQSYSTPFTFGPGTKVDIKR

*A*
84.1
56.7
66
